IC50 values by entry
test system: BJ; assay: Cytotoxicity in human BJ cells assessed as reduction in cell viability incubated for 72 hrs by calcein AM cytotoxicity assay; type: functional, cell-based; details: Homo sapiens, BJ, 72 h

Please review the following examples before continuing.
{"molecule.smiles": "COCCOC(=O)[C@@]12CC[C@]3(C)[C@H](CC[C@@H]4[C@@]5(C)CC[C@H](OC(C)=O)C(C)(C)[C@@H]5CC[C@]43C)C1=C(C(C)C)C(=O)C2", "endpoint.label": "IC50", "measured": "> 50 µM"}
{"molecule.smiles": "COCCOC(=O)[C@]1(COC(C)=O)CC[C@]2(C)[C@H](CC[C@@H]3[C@@]4(C)CC[C@H](OC(C)=O)C(C)(C)[C@@H]4CC[C@]32C)C1=O", "endpoint.label": "IC50", "measured": "> 50 µM"}
{"molecule.smiles": "C=C(C)[C@@H]1CC[C@]2(C(=O)OCCN3CCCCC3)CC[C@]3(C)[C@H](CC[C@@H]4[C@@]5(C)CC[C@H](O)C(C)(C)[C@@H]5CC[C@]43C)[C@@H]12", "endpoint.label": "IC50", "measured": "43.2 µM"}
{"molecule.smiles": "CC(C)[C@@H]1CC[C@]2(C(=O)OCC(=O)OCc3ccccc3)CC[C@]3(C)[C@H](CC[C@@H]4[C@@]5(C)CC[C@H](O)C(C)(C)[C@@H]5CC[C@]43C)[C@@H]12", "endpoint.label": "IC50", "measured": "> 50 µM"}

Could you now consider this next molecule?
Query: Reported IC50 for CC(=O)OC[C@@]1(C(=O)OCC(=O)OCc2ccccc2)CC[C@]2(C)[C@H](CC[C@@H]3[C@@]4(C)CC[C@H](OC(C)=O)C(C)(C)[C@@H]4CC[C@]32C)C1=O : what is it?
Reply: > 50 µM

###

# IC50 annotations
system: MCF7; assay: Cytotoxicity in human MCF7 cells assessed as reduction in cell viability incubated for 72 hrs by calcein AM cytotoxicity assay; format: functional, cell-based; details: Homo sapiens, MCF7, 72 h
Kindly provide the numeric value in µM only, without the unit symbol.

{"molecule.smiles": "COCCOCCOC(=O)[C@@]12CC[C@]3(C)[C@H](CC[C@@H]4[C@@]5(C)CC[C@H](OC(C)=O)C(C)(C)[C@@H]5CC[C@]43C)C1=C(C(C)C)C(=O)C2", "unit.label": "µM", "IC50": 21.9}
{"molecule.smiles": "CC(=O)O[C@H]1CC[C@]2(C)[C@H]3CC[C@@H]4C5=C(C(C)C)C(=O)C[C@]5(C(=O)O[C@@H]5O[C@H](CO)[C@@H](O)[C@H](O)[C@H]5O)CC[C@@]4(C)[C@]3(C)CC[C@H]2C1(C)C", "unit.label": "µM", "IC50": 6.6}

Now take the following compound into account.
Query: Entry CC(=O)OC[C@H]1O[C@@H](OC(=O)[C@]23CC[C@@H](C(C)C)[C@@H]2[C@H]2CC[C@@H]4[C@@]5(C)CC[C@H](O)C(C)(C)[C@@H]5CC[C@@]4(C)[C@]2(C)CC3)[C@H](OC(C)=O)[C@@H](OC(C)=O)[C@H]1OC(C)=O has what IC50?
Reply: 2.8

###

tested on: BJ; experiment: Cytotoxicity in human BJ cells assessed as reduction in cell viability incubated for 72 hrs by calcein AM cytotoxicity assay; type: functional, cell-based; settings: Homo sapiens, BJ, 72 h
Examples of compounds with documented pIC50 follow.
Just the number, please; pIC50 means minus log10 of the concentration in mol/L.

Sample records with pIC50:
{"molecule.smiles": "CC(=O)OC[C@H]1O[C@@H](OC(=O)[C@]2(COC(C)=O)CC[C@]3(C)[C@H](CC[C@@H]4[C@@]5(C)CC[C@H](OC(C)=O)C(C)(C)[C@@H]5CC[C@]43C)[C@@H]2O)[C@H](OC(C)=O)[C@@H](OC(C)=O)[C@@H]1OC(C)=O", "pIC50": 4.37}
{"molecule.smiles": "CC(C)[C@@H]1CC[C@]2(C(=O)OCCN3CCCCC3)CC[C@]3(C)[C@H](CC[C@@H]4[C@@]5(C)CC[C@H](O)C(C)(C)[C@@H]5CC[C@]43C)[C@@H]12", "pIC50": 4.35}
{"molecule.smiles": "CC(=O)OC[C@@]1(C(=O)OCC(=O)O)CC[C@]2(C)[C@H](CC[C@@H]3[C@@]4(C)CC[C@H](OC(C)=O)C(C)(C)[C@@H]4CC[C@]32C)C1=O", "pIC50": 5.15}
{"molecule.smiles": "CC(=O)O[C@H]1CC[C@]2(C)[C@H]3CC[C@@H]4C5=C(C(C)C)C(=O)C[C@]5(C(=O)OCCN5CCOCC5)CC[C@@]4(C)[C@]3(C)CC[C@H]2C1(C)C", "pIC50": 4.37}
{"molecule.smiles": "CC(=O)O[C@H]1CC[C@]2(C)[C@H]3CC[C@@H]4C5=C(C(C)C)C(=O)C[C@]5(C(=O)OCCN5CCCC5)CC[C@@]4(C)[C@]3(C)CC[C@H]2C1(C)C", "pIC50": 4.72}

Query: pIC50 for COCCOC(=O)[C@]12CC[C@@H](C(C)C)[C@@H]1[C@H]1CC[C@@H]3[C@@]4(C)CC[C@H](O)C(C)(C)[C@@H]4CC[C@@]3(C)[C@]1(C)CC2 ?
Reply: 4.58

Query: Would you kindly share the measured pIC50 for C=C(C)[C@@H]1CC[C@]2(C(=O)OCCN3CCCC3)CC[C@]3(C)[C@H](CC[C@@H]4[C@@]5(C)CC[C@H](O)C(C)(C)[C@@H]5CC[C@]43C)[C@@H]12 ?
Reply: 4.64

###

We begin with a simple list: items and their reported pIC50.
test system: G-361; assay: Cytotoxicity in human G361 cells assessed as reduction in cell viability incubated for 72 hrs by calcein AM cytotoxicity assay; type: functional, cell-based; conditions: Homo sapiens, G-361, 72 h
In plain terms, pIC50 is the concentration in mol/L turned into minus its base-10 logarithm.

{"molecule.smiles": "CC(=O)O[C@H]1CC[C@]2(C)[C@H]3CC[C@@H]4C5=C(C(C)C)C(=O)C[C@]5(C(=O)O[C@@H]5O[C@H](CO)[C@H](O)[C@H](O)[C@H]5O)CC[C@@]4(C)[C@]3(C)CC[C@H]2C1(C)C", "endpoint.label": "pIC50", "measured": 4.37}
{"molecule.smiles": "CC(=O)O[C@H]1CC[C@]2(C)[C@H]3CC[C@@H]4C5=C(C(C)C)C(=O)C[C@]5(C(=O)O[C@@H]5O[C@H](CO)[C@@H](O)[C@H](O)[C@H]5O)CC[C@@]4(C)[C@]3(C)CC[C@H]2C1(C)C", "endpoint.label": "pIC50", "measured": 5.17}
{"molecule.smiles": "C=C(C)[C@@H]1CC[C@]2(C(=O)OCCN3CCCC3)CC[C@]3(C)[C@H](CC[C@@H]4[C@@]5(C)CC[C@H](O)C(C)(C)[C@@H]5CC[C@]43C)[C@@H]12", "endpoint.label": "pIC50", "measured": 4.94}
{"molecule.smiles": "CC(=O)OC[C@@]1(C(=O)OCCN2CCCC2)CC[C@]2(C)[C@H](CC[C@@H]3[C@@]4(C)CC[C@H](OC(C)=O)C(C)(C)[C@@H]4CC[C@]32C)[C@@H]1O", "endpoint.label": "pIC50", "measured": 5.13}
{"molecule.smiles": "CC(=O)OC[C@H]1O[C@@H](OC(=O)[C@]23CC[C@@H](C(C)C)[C@@H]2[C@H]2CC[C@@H]4[C@@]5(C)CC[C@H](O)C(C)(C)[C@@H]5CC[C@@]4(C)[C@]2(C)CC3)[C@H](OC(C)=O)[C@@H](OC(C)=O)[C@@H]1OC(C)=O", "endpoint.label": "pIC50", "measured": 5.09}

Next molecule, please.
Query: Lookup: pIC50 / G-361 / COCCOCCOC(=O)[C@]12CC[C@@H](C(C)C)[C@@H]1[C@H]1CC[C@@H]3[C@@]4(C)CC[C@H](O)C(C)(C)[C@@H]4CC[C@@]3(C)[C@]1(C)CC2
Reply: 4.62

###

system: G-361; assay: Cytotoxicity in human G361 cells assessed as reduction in cell viability incubated for 72 hrs by calcein AM cytotoxicity assay; assay type: functional, cell-based; details: Homo sapiens, G-361, 72 h
IC50: recorded values
# number only, unit µM dropped from output

{"molecule.smiles": "C=C(C)[C@@H]1CC[C@]2(C(=O)OCCOCCOC)CC[C@]3(C)[C@H](CC[C@@H]4[C@@]5(C)CC[C@H](O)C(C)(C)[C@@H]5CC[C@]43C)[C@@H]12", "system.name": "G-361", "measured": 26.9}
{"molecule.smiles": "CC(C)[C@@H]1CC[C@]2(C(=O)OCCN3CCOCC3)CC[C@]3(C)[C@H](CC[C@@H]4[C@@]5(C)CC[C@H](O)C(C)(C)[C@@H]5CC[C@]43C)[C@@H]12", "system.name": "G-361", "measured": 33.8}

Query: Value lookup for IC50; key = C=C(C)[C@@H]1CC[C@]2(C(=O)OCCN3CCCCC3)CC[C@]3(C)[C@H](CC[C@@H]4[C@@]5(C)CC[C@H](O)C(C)(C)[C@@H]5CC[C@]43C)[C@@H]12
Reply: 28.6

Cited source for all entries: ChEMBL document CHEMBL4190365
